Test: Pharmacokinetics and colon distribution in rats
Type: in vivo, male Wistar rats
Conditions: male, Wistar, po; Rat, 5 mg/kg p.o., Total colon
value_kind: Cmax (ng/mL)
Numbers only, in ng/mL.

Prompt: Give the measured Cmax of `C#Cc1cc(Nc2nccc(Oc3ccc(NC(=O)Nc4cc(C(C)(C)C)nn4-c4ccc(C)cc4)c4ccccc34)n2)cc(C(=O)NCCOCCOCCOC)c1` .
Completion: 2000

---

System: PBMCs
Test: (b) LPS-induced TNFα/IL-8 release in PBMC cells
Type: cell-based
Details: Homo sapiens, read-out: IC50 for Inhibition of Cytokine Release, IL-8
value_kind: IC50 (nM)
Answers are plain numbers, in nM.

Examples with their reported IC50 follow.
> print(dat)
                                chem.smiles  target.or.test.system  measure.unit  reading
1  COCCOCCOCCNC(=O)c1cc(Nc2cc(Oc3ccc(NC(=O)Nc4cc(C(C)(C)C)nn4-c4ccc(C)cc4)c4ccccc34)ccn2)cc(OC)c1                  PBMCs            nM      1.4
2  C#Cc1cc(Nc2nccc(Oc3ccc(NC(=O)Nc4cc(C(C)(C)C)nn4-c4ccc(C)cc4)c4ccccc34)n2)cc(C(=O)NCCOCCOCCOC)c1                  PBMCs            nM        2
3  COCCOCCOCCNC(=O)c1cc(Nc2cc(Oc3ccc(NC(=O)Nc4cc(C(C)(C)C)nn4-c4cccc(CP(C)(C)=O)c4)c4ccccc34)ccn2)cc(OC)c1                  PBMCs            nM      1.2
4  C#Cc1cc(Nc2nccc(Oc3ccc(NC(=O)Nc4cc(C(C)(C)C)nn4-c4ccc(OC)cc4C)c4ccccc34)n2)cc(C(=O)NCCOCCOCCOC)c1                  PBMCs            nM        5

I would be grateful if you could provide IC50 for each of the following entries.
1. C#Cc1cc(Nc2nccc(Oc3ccc(NC(=O)Nc4cc(C(C)C)nn4-c4ccc(C)cc4)c4ccccc34)n2)cc(C(=O)NCCOCCOCCOC)c1
2. C#Cc1cc(Nc2nccc(Oc3ccc(NC(=O)Nc4cc(C(C)(C)C)nn4-c4ccc(N(C)C)cc4)c4ccccc34)n2)cc(C(=O)NCCOCCOCCOC)c1

Completion:
1.6
2.9

---

Test: Pharmacokinetics and colon distribution in rats
Format: in vivo, male Wistar rats
Conditions: male, Wistar, colon, po; rat, 5 mg/kg p.o., 6 hr; read-out: Mean concentration, Colon
Protocol: 30 male Wistar rats were divided into two groups: Group I (p.o.: 5 mg/kg) and Group II (i.v.: 0.25 mg/kg). […] From each rat, blood samples (approximately 120 μL) were collected from retro orbital plexus such that samples were obtained at pre-dose, 0.05, 0.13, 0.25, 0.5, 1, 2, 4, 8, and 24 hr (i.v.) and pre-dose, 0.5, 1, 2, 4, 6, 8, 12 and 24 hr (p.o.). […] Plasma and total colon tissue samples were quantified by LC-MS/MS method (LLOQ in plasma and total colon tissue=0.5 ng/mL).
value_kind: concentration at 6 h (ng/g)
Numbers only, in ng/g.

Prompt: Give the measured concentration at 6 h of `C#Cc1cc(Nc2nccc(Oc3ccc(NC(=O)Nc4cc(C(C)(C)C)nn4-c4ccc(C)cc4)c4ccccc34)n2)cc(C(=O)NCCOCCOCCOC)c1` .
Completion: 1860
